Tested on: BT474
Test: MTT primary screening of anticancer activity, BT474
Format: cell-based
Details: 25 µM pACP, 24 h, maintenance medium 1% FBS, ratio of viability to vehicle (PBS), at least three technical repetitions
Where no end group is shown, it is not given here.
readout label: Survival rate of cancer cells in primary screening
Write no unit; give the number alone.

*Q* Any idea what Survival rate of cancer cells in primary screening was measured for NFWLSTLTGHGFCAVVSAARAGS [pACP1292] ?
*A* 1.00

*Q* Try RRFAWIGKLQSRKVRNNIRQYRTKIVRQMRRQIFRQMKQKAE [pACP1780] next.
*A* 0.03

*Q* Try GLTSESVKSRCVKCLLYIKKSGATHDDNALHRTYCRNNCYRL [pACP550] next.
*A* 1.00

*Q* Try LARPDAAPKKQLRRPLRFRQPEWRRISKIHHIPRRFRRA [pACP1156] next.
*A* 1.00

*Q* Try YRKCDTAGGLSKLCVAEKDIKIIWKYGGR [pACP2334] next.
*A* 1.00

*Q* Try KGVRGKICKGKRCKQISNSGCDRQEIQEKQENRYRKEKQNKG [pACP886] next.
*A* 1.00

*Q* Try DSYGNRTEIERKIWRRYPCGYSCGTGEVKCDKEEWKKEYW [pACP264] next.
*A* 1.00

*Q* Try PPSTRIISKVYPFKKHARGGWAIPGMMCSQMVER [pACP1472] next.
*A* 1.00

*Q* Try RLIVRMKTLYEKAAQMEIKIVENRFTRHEKKNKINRIKRKREK [pACP1722] next.
*A* 0.14

*Q* Try IYRKGTCADCAQGGVCTGHCSNKKTCAALKGVDKIAEDLGRGIK [pACP822] next.
*A* 1.00

====

Each entry below carries its recorded Survival rate of cancer cells in primary screening.
Test system: LCC
Test: MTT primary screening of anticancer activity, LCC
Type: cell-based
Details: 25 µM pACP, 24 h, maintenance medium 1% FBS, ratio of viability to vehicle (PBS), at least three technical repetitions
Where no end group is shown, it is not given here.
Write no unit; give the number alone.

{"columns": ["sequence code", "recorded result"],
 "data": [
  ["RRFAWIGKLQSRKVRNNIRQYRTKIVRQMRRQIFRQMKQKAE [pACP1780]", 0.47]
]}

*Q* Any idea what Survival rate of cancer cells in primary screening was measured for GLTSESVKSRCVKCLLYIKKSGATHDDNALHRTYCRNNCYRL [pACP550] ?
*A* 1.00

*Q* Try KSLQMVLSFVIIFADKKKTLATLIVAKKKKGW [pACP1096] next.
*A* 1.00

*Q* Try YSYGYVISSCKKAGGGYAIRYVALHYVQGTKEGGGRQ [pACP2344] next.
*A* 1.00

*Q* Try NFWLSTLTGHGFCAVVSAARAGS [pACP1292] next.
*A* 1.00

====

Tested on: SK-BR-3
Assay: MTT primary screening of anticancer activity, SK-BR-3
Type: cell-based
Conditions: 25 µM pACP, 24 h, maintenance medium 1% FBS, ratio of viability to vehicle (PBS), at least three technical repetitions
readout label: Survival rate of cancer cells in primary screening
Write no unit; give the number alone.

Some entries whose results are on file:
{"columns": ["sequence code", "recorded result"],
 "data": [
  ["PVCRKEKKDGKRCVARYVEHFAGKDRRMQA [pACP1505]", 1.00],
  ["RVYKFVDMIGEIGHGRENHIGSGFDERLCRNGACVDCYGKYLCCRTGDYP [pACP1836]", 1.00],
  ["RLIVRMKTLYEKAAQMEIKIVENRFTRHEKKNKINRIKRKREK [pACP1722]", 0.63],
  ["AAGVSIEIHISLTLFTQVKCVARSQCAAEGAGLRHIKVAALQSCSRRRAH [pACP2]", 1.00],
  ["NQRKRTACDRRRSICDERIAAGICKRNFRCKKYLKINGTIGLSIRLGKLG [pACP1381]", 1.00]
]}

*Q* Any idea what Survival rate of cancer cells in primary screening was measured for SCRNGKGISSGDRPGKAKTGISLEIGKCSYRNKGKSAENSSVAVV [pACP1869] ?
*A* 1.00
